target: UniProt:P11388
assay_text: Inhibition of human recombinant DNA topoisomerase 2alpha at 100 uM assessed as relaxation of supercoiled DNA pBR322 after 30 mins by Agarose gel electrophoresis
readout_label: inhibition (%)

chemical_structure: Oc1ccccc1-c1cc(-c2ccc(Cl)cc2)c2c(n1)-c1ccccc1C2
inhibition / %: 2.8

A: Oc1cccc(-c2cc(-c3ccccc3Cl)nc3c2Cc2ccccc2-3)c1
B: Oc1ccc(-c2cc(-c3ccccc3)nc3c2Cc2ccccc2-3)cc1
stdin: Lab log: flag the item ( A or B ) with the smaller inhibition figure. Selection: enter the item's label.
stdout: A
(A: 3.1%, B: 65.9%)

###

target: DNA topoisomerase 1 (Homo sapiens)
Sequence (whole entry): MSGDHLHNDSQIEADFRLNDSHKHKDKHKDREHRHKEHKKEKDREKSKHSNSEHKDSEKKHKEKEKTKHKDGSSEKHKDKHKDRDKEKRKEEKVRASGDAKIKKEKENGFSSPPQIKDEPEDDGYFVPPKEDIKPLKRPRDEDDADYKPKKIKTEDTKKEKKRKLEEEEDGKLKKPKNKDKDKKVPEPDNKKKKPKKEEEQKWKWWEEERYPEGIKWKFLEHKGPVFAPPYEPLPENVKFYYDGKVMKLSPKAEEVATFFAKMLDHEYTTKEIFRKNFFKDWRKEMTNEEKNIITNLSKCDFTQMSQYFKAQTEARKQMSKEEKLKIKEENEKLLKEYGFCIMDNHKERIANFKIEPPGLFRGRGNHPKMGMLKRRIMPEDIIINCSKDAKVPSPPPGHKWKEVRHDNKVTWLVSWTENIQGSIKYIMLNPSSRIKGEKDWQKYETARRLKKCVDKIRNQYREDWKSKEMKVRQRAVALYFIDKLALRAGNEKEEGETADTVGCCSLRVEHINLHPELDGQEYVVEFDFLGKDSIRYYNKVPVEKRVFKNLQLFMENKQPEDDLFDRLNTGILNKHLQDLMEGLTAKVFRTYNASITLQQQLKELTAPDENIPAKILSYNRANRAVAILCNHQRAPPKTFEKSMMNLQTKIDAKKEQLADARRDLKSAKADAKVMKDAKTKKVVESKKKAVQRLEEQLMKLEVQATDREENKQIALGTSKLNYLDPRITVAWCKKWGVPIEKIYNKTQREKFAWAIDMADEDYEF
assay_text: Inhibition of human recombinant DNA topoisomerase 1 at 100 uM assessed as relaxation of supercoiled DNA pBR322 after 30 mins by Agarose gel electrophoresis
readout_label: inhibition (%)

a: Oc1cccc(-c2cc(-c3ccccc3Cl)nc3c2Cc2ccccc2-3)c1
b: Oc1ccc(-c2cc(-c3ccc(Cl)cc3)c3c(n2)-c2ccccc2C3)cc1
c: Oc1ccc(-c2cc(-c3ccccc3)c3c(n2)-c2ccccc2C3)cc1
stdin: # order the molecules above by inhibition, highest value first # respond with the labels, arranged in the requested order
stdout: b, c, a
(b: 19.1%, c: 5.2%, a: 0%)

###

target: DNA topoisomerase 2-alpha (Homo sapiens) (UniProt P11388)
Sequence (P11388 whole entry): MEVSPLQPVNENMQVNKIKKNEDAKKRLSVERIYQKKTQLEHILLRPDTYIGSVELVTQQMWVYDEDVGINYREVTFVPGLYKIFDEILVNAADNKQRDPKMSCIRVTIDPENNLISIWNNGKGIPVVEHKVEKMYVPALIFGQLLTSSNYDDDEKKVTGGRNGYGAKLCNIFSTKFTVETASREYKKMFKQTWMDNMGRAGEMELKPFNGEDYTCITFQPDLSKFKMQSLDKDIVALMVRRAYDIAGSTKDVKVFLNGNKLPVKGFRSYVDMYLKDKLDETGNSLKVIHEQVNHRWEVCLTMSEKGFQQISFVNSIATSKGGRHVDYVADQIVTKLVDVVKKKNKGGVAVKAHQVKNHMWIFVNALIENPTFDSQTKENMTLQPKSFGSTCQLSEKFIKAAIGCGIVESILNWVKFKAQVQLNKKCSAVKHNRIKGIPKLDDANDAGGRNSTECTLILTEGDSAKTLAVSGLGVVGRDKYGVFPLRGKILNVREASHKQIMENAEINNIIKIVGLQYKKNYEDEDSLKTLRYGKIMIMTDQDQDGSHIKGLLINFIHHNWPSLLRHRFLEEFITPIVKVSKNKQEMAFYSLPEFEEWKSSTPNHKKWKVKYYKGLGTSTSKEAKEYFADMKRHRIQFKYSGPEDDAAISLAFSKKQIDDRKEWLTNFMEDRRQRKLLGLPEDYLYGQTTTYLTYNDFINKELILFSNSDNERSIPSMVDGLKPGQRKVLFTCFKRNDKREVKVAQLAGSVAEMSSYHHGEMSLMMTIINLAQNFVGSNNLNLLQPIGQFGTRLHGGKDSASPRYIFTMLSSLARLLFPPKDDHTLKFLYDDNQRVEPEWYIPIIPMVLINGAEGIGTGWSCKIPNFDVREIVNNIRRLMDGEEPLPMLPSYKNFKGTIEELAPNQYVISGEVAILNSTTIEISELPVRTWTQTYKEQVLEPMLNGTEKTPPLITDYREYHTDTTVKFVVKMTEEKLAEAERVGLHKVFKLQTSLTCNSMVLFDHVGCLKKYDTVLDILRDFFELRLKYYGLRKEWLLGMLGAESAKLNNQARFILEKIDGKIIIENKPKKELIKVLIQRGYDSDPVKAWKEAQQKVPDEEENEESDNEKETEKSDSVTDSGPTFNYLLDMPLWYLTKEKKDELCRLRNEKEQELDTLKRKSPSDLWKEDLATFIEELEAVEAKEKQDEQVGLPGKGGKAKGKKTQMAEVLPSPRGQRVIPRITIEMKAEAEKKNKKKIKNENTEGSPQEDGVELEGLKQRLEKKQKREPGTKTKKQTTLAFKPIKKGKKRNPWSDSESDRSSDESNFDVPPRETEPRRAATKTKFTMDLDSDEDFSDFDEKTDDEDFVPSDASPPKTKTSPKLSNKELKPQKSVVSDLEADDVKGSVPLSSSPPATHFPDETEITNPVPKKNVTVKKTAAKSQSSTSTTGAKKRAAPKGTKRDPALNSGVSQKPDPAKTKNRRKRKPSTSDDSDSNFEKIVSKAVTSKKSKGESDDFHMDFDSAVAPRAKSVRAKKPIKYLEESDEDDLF
assay_text: Inhibition of human recombinant DNA topoisomerase 2alpha at 100 uM assessed as relaxation of supercoiled DNA pBR322 after 30 mins by Agarose gel electrophoresis
readout_label: inhibition (%)

chemical_structure: Oc1ccc(-c2cc(-c3ccccc3Cl)nc3c2Cc2ccccc2-3)cc1
target: DNA topoisomerase 2-alpha (Homo sapiens) (UniProt P11388)
value_unit: %
inhibition: 3.5
--
chemical_structure: Oc1ccccc1-c1cc(-c2cccc(Cl)c2)c2c(n1)-c1ccccc1C2
target: DNA topoisomerase 2-alpha (Homo sapiens) (UniProt P11388)
value_unit: %
inhibition: 2.8
--
chemical_structure: Oc1ccccc1-c1cc(-c2ccccc2Cl)c2c(n1)-c1ccccc1C2
target: DNA topoisomerase 2-alpha (Homo sapiens) (UniProt P11388)
value_unit: %
inhibition: 4.8
--
chemical_structure: Oc1cccc(-c2cc(-c3ccccc3)nc3c2Cc2ccccc2-3)c1
target: DNA topoisomerase 2-alpha (Homo sapiens) (UniProt P11388)
value_unit: %
inhibition: 70.5

A: Oc1ccc(-c2cc(-c3cccc(Cl)c3)c3c(n2)-c2ccccc2C3)cc1
B: Oc1cccc(-c2cc(-c3cccc(Cl)c3)nc3c2Cc2ccccc2-3)c1
stdin: Higher inhibition: A or B ? Selection: enter the item's label.
stdout: A

A: Oc1cccc(-c2cc(-c3ccccc3Cl)c3c(n2)-c2ccccc2C3)c1
B: Oc1ccc(-c2cc(-c3ccccc3Cl)c3c(n2)-c2ccccc2C3)cc1
C: Oc1cccc(-c2cc(-c3cccc(Cl)c3)c3c(n2)-c2ccccc2C3)c1
D: Oc1ccccc1-c1cc(-c2ccc(Cl)cc2)nc2c1Cc1ccccc1-2
stdin: Put the items in sequence by inhibition, from largest down. # respond with the labels, arranged in the requested order
stdout: A, C, D, B
(A: 6.7%, C: 4.4%, D: 2.7%, B: 1.6%)

A: Oc1cccc(-c2cc(-c3ccccc3)c3c(n2)-c2ccccc2C3)c1
B: Oc1cccc(-c2cc(-c3ccc(Cl)cc3)nc3c2Cc2ccccc2-3)c1
stdin: Higher inhibition: A or B ? Selection: enter the item's label.
stdout: A
